# tested_target: OATP1B1 (Homo sapiens, UniProt Q9Y6L6)
# Sequence (Q9Y6L6 whole entry): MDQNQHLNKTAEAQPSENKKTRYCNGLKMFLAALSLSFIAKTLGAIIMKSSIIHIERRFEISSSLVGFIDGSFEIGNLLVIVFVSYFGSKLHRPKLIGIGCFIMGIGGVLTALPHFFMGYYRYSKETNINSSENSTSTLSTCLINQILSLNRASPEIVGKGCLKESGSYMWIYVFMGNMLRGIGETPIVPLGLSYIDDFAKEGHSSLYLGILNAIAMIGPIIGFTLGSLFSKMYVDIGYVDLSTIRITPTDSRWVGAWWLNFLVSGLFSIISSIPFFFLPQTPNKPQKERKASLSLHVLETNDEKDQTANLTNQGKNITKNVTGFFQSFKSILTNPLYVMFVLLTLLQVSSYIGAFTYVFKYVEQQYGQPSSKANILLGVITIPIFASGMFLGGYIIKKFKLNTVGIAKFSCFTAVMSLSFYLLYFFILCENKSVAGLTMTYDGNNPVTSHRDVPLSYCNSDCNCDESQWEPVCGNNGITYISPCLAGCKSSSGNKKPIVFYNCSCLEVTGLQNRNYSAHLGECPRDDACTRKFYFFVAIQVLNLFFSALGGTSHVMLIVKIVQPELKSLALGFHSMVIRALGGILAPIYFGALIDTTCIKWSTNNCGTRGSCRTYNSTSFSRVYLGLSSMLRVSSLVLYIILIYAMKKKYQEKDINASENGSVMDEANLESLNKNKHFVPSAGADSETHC
# experimental_protocol: Uptake transporter inhibition
# experimental_conditions: probe substrate pravastatin
metric_name: IC50

Please review the entries below; each comes with its answer.
- compound: "CC1CS(=O)(=O)CCN1n1cc(SCC(N)C(=O)O)ccc1=O (stereo not drawn)"
  tested_target: "OATP1B1 (Homo sapiens, UniProt Q9Y6L6)"
  metric_name: "IC50"
  result: "> 20 µM"
- compound: "CC1CS(=O)(=O)CCN1/N=C/c1ccc([N+](=O)[O-])o1 (stereo not drawn) [Nifurtimox, reference compound]"
  tested_target: "OATP1B1 (Homo sapiens, UniProt Q9Y6L6)"
  metric_name: "IC50"
  result: "> 50 µM"

Challenge: Specify IC50 for CC1CS(=O)(=O)CCN1N (stereo not drawn) , system OATP1B1 (Homo sapiens, UniProt Q9Y6L6).
Response given: > 50 µM
